Reported Ki values for a set of molecules
- assay system: human full-length autophosphorylated recombinant HPK1 (Homo sapiens (Human), UniProt Q92918)
- Sequence (Q92918 other isoform, or with tags, fused parts or gaps): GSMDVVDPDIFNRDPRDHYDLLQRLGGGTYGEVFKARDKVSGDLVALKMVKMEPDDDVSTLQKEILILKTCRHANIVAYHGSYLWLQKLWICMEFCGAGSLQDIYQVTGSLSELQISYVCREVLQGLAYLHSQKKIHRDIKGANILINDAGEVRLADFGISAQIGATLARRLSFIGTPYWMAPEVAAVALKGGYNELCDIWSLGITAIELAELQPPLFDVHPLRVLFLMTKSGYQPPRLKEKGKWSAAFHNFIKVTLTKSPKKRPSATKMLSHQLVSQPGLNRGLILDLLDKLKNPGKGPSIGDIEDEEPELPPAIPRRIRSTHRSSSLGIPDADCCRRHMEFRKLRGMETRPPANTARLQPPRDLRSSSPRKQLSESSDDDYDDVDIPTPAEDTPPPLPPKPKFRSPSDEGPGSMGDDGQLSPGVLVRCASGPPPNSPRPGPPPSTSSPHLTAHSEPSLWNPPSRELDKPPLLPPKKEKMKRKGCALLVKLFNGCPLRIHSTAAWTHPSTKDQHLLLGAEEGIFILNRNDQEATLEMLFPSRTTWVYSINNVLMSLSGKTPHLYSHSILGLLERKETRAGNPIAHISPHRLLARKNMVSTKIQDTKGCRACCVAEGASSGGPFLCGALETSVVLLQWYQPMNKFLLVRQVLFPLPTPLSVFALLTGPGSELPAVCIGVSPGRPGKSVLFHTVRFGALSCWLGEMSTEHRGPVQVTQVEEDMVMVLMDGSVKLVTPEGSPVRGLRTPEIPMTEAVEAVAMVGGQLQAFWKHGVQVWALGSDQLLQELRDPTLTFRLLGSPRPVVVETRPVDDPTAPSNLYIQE
- assay notes: HPK1 biochemical enzyme assay (chelation-enhanced fluorescence, CHEF)
- experimental context: 0.5 nM HPK1, 45 μM ATP, Morrison fit
Express the result in nM but write the number alone.

CCCn1c(C)nnc1-c1cccc(N2Cc3c(cc(N4CCC[C@H]4C)nc3C(C)(C)N)C2=O)n1    0.12

Request the reported Ki associated with CCn1cnnc1-c1cccc(N2Cc3c(cc(N(C)C)nc3C(C)(C)N)C2=O)n1 0.38

---

- assay system: Human recombinant full-length GST-tagged RPS6KA2 (RSK3) (Homo sapiens (Human), UniProt Q15349)
- Sequence (Q15349 whole entry): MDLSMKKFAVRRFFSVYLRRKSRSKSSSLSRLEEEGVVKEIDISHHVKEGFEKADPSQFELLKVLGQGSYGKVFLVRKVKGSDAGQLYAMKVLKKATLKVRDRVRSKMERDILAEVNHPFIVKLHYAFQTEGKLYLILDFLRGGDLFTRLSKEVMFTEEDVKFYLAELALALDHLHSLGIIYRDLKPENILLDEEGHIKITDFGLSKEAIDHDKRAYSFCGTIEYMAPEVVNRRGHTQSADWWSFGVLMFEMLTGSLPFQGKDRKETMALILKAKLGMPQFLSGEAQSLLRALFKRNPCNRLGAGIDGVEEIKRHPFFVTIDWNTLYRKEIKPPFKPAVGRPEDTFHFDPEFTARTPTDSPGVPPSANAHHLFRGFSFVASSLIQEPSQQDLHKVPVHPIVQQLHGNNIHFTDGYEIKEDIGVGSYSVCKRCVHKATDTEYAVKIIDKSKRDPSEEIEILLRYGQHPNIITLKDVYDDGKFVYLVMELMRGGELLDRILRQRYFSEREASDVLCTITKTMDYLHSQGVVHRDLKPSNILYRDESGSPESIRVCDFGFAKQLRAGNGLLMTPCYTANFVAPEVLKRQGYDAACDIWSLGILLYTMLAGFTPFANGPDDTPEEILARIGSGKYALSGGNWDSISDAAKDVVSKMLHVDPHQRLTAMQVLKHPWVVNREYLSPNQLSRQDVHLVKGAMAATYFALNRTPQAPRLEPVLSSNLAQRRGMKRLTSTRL
- assay notes: Biochemical selectivity kinase assay (Z'-LYTE FRET), RSK3
- experimental context: 10 μM ATP (~Km)
Reported IC50 values for a set of molecules
Express the result in nM but write the number alone.

CNCc1nc(N2CCC[C@H]2C)cc2c1CN(c1cccc(-c3nnc4n3[C@@H](CF)CC4)n1)C2=O [Example 202]    40.1
CC[C@H]1CCc2nnc(-c3cccc(N4Cc5c(cc(N6CCC[C@H]6C)nc5[C@H](C)N)C4=O)n3)n21 [Example 3]    3.33
CC[C@@H](N)c1nc(N2CCC[C@H]2C)cc2c1CN(c1cccc(-c3nnc4n3[C@@H](C)CC4)n1)C2=O [Example 1]    47
CCn1cnnc1-c1cccc(N2Cc3c(cc(N4CCC[C@H]4C)nc3C(C)(C)N)C2=O)n1 [Example 100]    15.5

Request the reported IC50 associated with CC[C@H]1CCc2nnc(-c3cccc(N4Cc5c(cc(N6CCC[C@H]6C)nc5CNC)C4=O)n3)n21 [Example 200] 10.1

Request the reported IC50 associated with CC[C@H]1CCc2nnc(-c3cccc(N4Cc5c(cc(N(C)C(C)C)nc5CNC)C4=O)n3)n21 [Example 201] 6.73

Request the reported IC50 associated with CCCn1cnnc1-c1cccc(N2Cc3c(cc(N(C)C)nc3CNC)C2=O)n1 [Example 300] 6.26

Request the reported IC50 associated with CC[C@H]1CCc2nnc(-c3cccc(N4Cc5c(cc(N6CCC[C@H]6C)nc5[C@@H](C)N)C4=O)n3)n21 [Example 2] 21.3

Request the reported IC50 associated with CC[C@H]1CCc2nnc(-c3cccc(N4Cc5c(cc(N(C)C(C)C)nc5[C@@H](C)N)C4=O)n3)n21 [Example 4] 25.8

---

- assay system: human full-length autophosphorylated recombinant HPK1 (Homo sapiens (Human))
- assay notes: HPK1 biochemical enzyme assay (chelation-enhanced fluorescence, CHEF)
- experimental context: 0.5 nM HPK1, 45 μM ATP, Morrison fit
outcome measure: log10 Ki (log10 of the value in nM)
Scale type: logarithmic (base 10). Underlying Ki unit: nM.

CC[C@H](N)c1nc(C2(C)CC2)cc2c1CN(c1cccc(-c3nncn3CC)n1)C2=O (single isomer, unassigned)    0.47
CCCn1cnnc1-c1cccc(N2Cc3c(cc(C4(C)CC4)nc3[C@@H](C)N)C2=O)n1 (single isomer, unassigned)    0.01
CCn1cnnc1-c1cccc(N2Cc3c(cc(C4(C)CC4)nc3[C@@H](C)NC)C2=O)n1    0.53

Request the reported log10 Ki associated with CCn1cnnc1-c1cccc(N2Cc3c(cc(N4CCC[C@H]4C)nc3[C@@H](C)NC)C2=O)n1 (single isomer, unassigned) -1.05

Request the reported log10 Ki associated with CCCn1cnnc1-c1cccc(N2Cc3c(cc(N4CCC[C@H]4C)nc3[C@H](N)CC)C2=O)n1 -0.96

Request the reported log10 Ki associated with C[C@@H]1CCCN1c1cc2c(c([C@@H](C)N)n1)CN(c1cccc(-c3nnc4n3[C@@H](C)CC4)n1)C2=O 0.25

Request the reported log10 Ki associated with CC[C@@H](N)c1nc(N2CCC[C@H]2C)cc2c1CN(c1cccc(-c3nnc4n3[C@@H](CF)CC4)n1)C2=O -1.22

---

Reported Ki values for a set of compounds
- assay system: human full-length autophosphorylated recombinant HPK1 (Homo sapiens (Human), UniProt Q92918)
- assay notes: HPK1 biochemical enzyme assay (chelation-enhanced fluorescence, CHEF)
- experimental context: 0.5 nM HPK1, 45 μM ATP, Morrison fit

Request the reported Ki associated with CNCc1nc(N(C)C)cc2c1CN(c1cccc(-c3nnc4n3[C@@H](C)CC4)n1)C2=O 0.6 nM

Request the reported Ki associated with CCC(CC)n1cnnc1-c1cccc(N2Cc3c(cc(C4(C)CC4)nc3[C@@H](C)N)C2=O)n1 (stereo in doubt) 1.78 nM

Request the reported Ki associated with CCCn1c(C)nnc1-c1cccc(N2Cc3c(cc(N(C)C(C)C)nc3C(C)(C)N)C2=O)n1 0.27 nM

---

- assay system: Human recombinant full-length GST-tagged PRKD2 (PKD2) (Homo sapiens (Human), UniProt Q9BZL6)
- Sequence (Q9BZL6 whole entry): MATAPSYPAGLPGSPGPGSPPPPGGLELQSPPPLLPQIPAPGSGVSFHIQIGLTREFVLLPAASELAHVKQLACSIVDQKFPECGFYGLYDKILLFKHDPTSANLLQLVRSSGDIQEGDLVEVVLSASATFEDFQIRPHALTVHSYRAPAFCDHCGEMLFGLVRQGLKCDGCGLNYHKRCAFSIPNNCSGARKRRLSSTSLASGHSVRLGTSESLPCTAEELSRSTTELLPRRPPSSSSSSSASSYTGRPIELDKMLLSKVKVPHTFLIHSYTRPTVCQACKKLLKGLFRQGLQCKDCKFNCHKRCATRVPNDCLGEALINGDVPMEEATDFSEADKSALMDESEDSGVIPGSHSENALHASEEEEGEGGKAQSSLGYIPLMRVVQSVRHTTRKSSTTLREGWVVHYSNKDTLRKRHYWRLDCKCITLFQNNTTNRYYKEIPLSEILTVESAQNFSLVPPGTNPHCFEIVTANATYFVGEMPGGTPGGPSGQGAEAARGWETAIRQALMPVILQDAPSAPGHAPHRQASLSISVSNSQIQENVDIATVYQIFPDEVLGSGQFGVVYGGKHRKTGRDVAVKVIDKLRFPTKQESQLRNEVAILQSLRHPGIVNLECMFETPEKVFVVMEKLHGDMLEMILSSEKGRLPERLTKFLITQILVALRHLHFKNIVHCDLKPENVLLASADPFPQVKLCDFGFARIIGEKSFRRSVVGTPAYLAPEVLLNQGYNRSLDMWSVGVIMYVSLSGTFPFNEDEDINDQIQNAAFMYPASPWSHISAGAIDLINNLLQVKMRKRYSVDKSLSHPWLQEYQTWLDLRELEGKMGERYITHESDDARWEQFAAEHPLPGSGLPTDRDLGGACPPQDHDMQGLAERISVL
- assay notes: Biochemical selectivity kinase assay (Z'-LYTE FRET), PRKD2
- experimental context: ratio of the PRKD2 IC50 to the HPK1 Ki
outcome measure: PRKD2 IC50/HPK1 Ki

The cases that follow already have their PRKD2 IC50/HPK1 Ki on record.
CC[C@H]1CCc2nnc(-c3cccc(N4Cc5c(cc(N6CCC[C@H]6C)nc5[C@@H](C)N)C4=O)n3)n21    >2320
CC[C@H]1CCc2nnc(-c3cccc(N4Cc5c(cc(N(C)C(C)C)nc5CNC)C4=O)n3)n21    >108
CNCc1nc(N2CCC[C@H]2C)cc2c1CN(c1cccc(-c3nnc4n3[C@@H](CF)CC4)n1)C2=O    108

Request the reported PRKD2 IC50/HPK1 Ki associated with CCn1cnnc1-c1cccc(N2Cc3c(cc(N4CCC[C@H]4C)nc3C(C)(C)N)C2=O)n1 >1020

---

- assay system: human full-length autophosphorylated recombinant HPK1 (Homo sapiens (Human), UniProt Q92918)
- assay notes: HPK1 biochemical enzyme assay (chelation-enhanced fluorescence, CHEF)
- experimental context: 0.5 nM HPK1, 45 μM ATP, Morrison fit
Reported Ki values for a set of molecules

CCn1cnnc1-c1cccc(N2Cc3c(cc(C4(C)CC4)nc3[C@@H](C)N)C2=O)n1    0.56 nM
C[C@H](N)c1nc(N2CCC[C@H]2C)cc2c1CN(c1cccc(-c3nnc4n3[C@@H](CF)CC4)n1)C2=O    0.15 nM
CC[C@@H](N)c1nc(N(C)C(C)C)cc2c1CN(c1cccc(-c3nnc4n3[C@@H](CF)CC4)n1)C2=O    0.15 nM

Request the reported Ki associated with CCN(C)c1cc2c(c(C(C)(C)N)n1)CN(c1cccc(-c3nncn3CC)n1)C2=O 0.37 nM

---

- assay system: human full-length autophosphorylated recombinant HPK1 (Homo sapiens (Human), UniProt Q92918)
- assay notes: HPK1 biochemical enzyme assay (chelation-enhanced fluorescence, CHEF)
- experimental context: 0.5 nM HPK1, 45 μM ATP, Morrison fit
Reported Ki values for a set of compounds
Express the result in nM but write the number alone.

Request the reported Ki associated with CC(C)N(C)c1cc2c(c([C@@H](C)N)n1)CN(c1cccc(-c3nnc4n3[C@@H](CF)CC4)n1)C2=O [Example 29] 0.2

Request the reported Ki associated with CCN(C)c1cc2c(c([C@H](C)N)n1)CN(c1cccc(-c3nncn3CC)n1)C2=O (single isomer, unassigned) [Example 130] 0.4

Request the reported Ki associated with CC[C@@H](N)c1nc(N(C)C)cc2c1CN(c1cccc(-c3nncn3CC)n1)C2=O (stereo in doubt) [Example 146] 3.14

---

- assay system: human full-length autophosphorylated recombinant HPK1 (Homo sapiens (Human), UniProt Q92918)
- assay notes: HPK1 biochemical enzyme assay (chelation-enhanced fluorescence, CHEF)
- experimental context: 0.5 nM HPK1, 45 μM ATP, Morrison fit
Mark Satisfied only for Ki values smaller than 2 nM; exact matches and larger values are Not satisfied.

Observe how each entry below is paired with its result.
CCCn1cnnc1-c1cccc(N2Cc3c(cc(N(C)C)nc3[C@H](N)CC)C2=O)n1 (stereo in doubt)    Satisfied
C[C@@H]1CCCN1c1cc2c(c([C@@H](C)N)n1)CN(c1cccc(-c3nnc4n3[C@@H](CO)CC4)n1)C2=O    Satisfied
CCCn1cnnc1-c1cccc(N2Cc3c(cc(C4(C)CC4)nc3[C@H](C)N)C2=O)n1 (single isomer, unassigned)    Satisfied

# strict comparison: is reported Ki < 2 nM? input = CC[C@H](N)c1nc(N2CCC[C@H]2C)cc2c1CN(c1cccc(-c3nncn3CC)n1)C2=O Satisfied

# strict comparison: is reported Ki < 2 nM? input = C[C@@H](N)c1nc(C2(C)CC2)cc2c1CN(c1cccc(-c3nncn3C3CCC3)n1)C2=O (stereo in doubt) Satisfied

# strict comparison: is reported Ki < 2 nM? input = CNCc1nc(N(C)C)cc2c1CN(c1cccc(-c3nnc4n3[C@H](C)CC4)n1)C2=O Not satisfied

# strict comparison: is reported Ki < 2 nM? input = CC[C@@H]1CCc2nnc(-c3cccc(N4Cc5c(cc(N(C)C)nc5CNC)C4=O)n3)n21 Not satisfied
